Study target: hM5 (human Muscarinic receptor subtype 5) (Homo sapiens, UniProt P08912)
Construct: expressed in transfected cells; host or cells: CHO cells (Chinese hamster ovary cells, ATCC)
Sequence (P08912 whole entry): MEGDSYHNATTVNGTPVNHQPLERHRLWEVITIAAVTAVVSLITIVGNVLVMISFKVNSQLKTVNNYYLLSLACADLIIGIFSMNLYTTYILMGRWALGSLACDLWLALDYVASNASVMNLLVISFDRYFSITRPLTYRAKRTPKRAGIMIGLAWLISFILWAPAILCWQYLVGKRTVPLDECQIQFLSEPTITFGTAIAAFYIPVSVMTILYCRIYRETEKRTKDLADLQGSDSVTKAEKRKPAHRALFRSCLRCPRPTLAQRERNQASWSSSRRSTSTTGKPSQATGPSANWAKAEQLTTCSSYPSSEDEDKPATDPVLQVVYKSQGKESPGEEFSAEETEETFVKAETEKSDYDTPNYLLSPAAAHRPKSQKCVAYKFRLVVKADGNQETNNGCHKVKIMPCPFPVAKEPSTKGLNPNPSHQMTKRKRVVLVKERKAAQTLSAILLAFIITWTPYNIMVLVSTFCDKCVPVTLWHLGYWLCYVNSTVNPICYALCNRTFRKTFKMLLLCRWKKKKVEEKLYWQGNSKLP
Assay info: Human M5 calcium mobilization FLIPR assay
Format: cell-based
Test settings: hM5 expressed in CHO cells, intracellular Ca2+ release, read-out: hM5 EC50
Procedure: Human M1, rat M1, human M3 and human M5 Calcium Mobilization FLIPR™ Assay The compound activity in the present invention (EC50 or IC50) is measured using a 384 plate-based imaging assay that monitors drug induced intracellular Ca^2+ release in whole cells. […] Inhibition of hM3 and hM5 by compounds is determined by the decrease in fluorescent signal in response to 2 nM acetylcholine activation. […]
Attribute measured: EC50 (nM)
Could you give me the number in nM? Just the number is fine.

Some solved cases for reference:
Compound: Cc1ccc2[nH]c(=O)n(C3CCN(C4(C)CCN(C(=O)OCCF)C4)CC3)c2c1 (single isomer, unassigned)
Study target: hM5 (human Muscarinic receptor subtype 5) (Homo sapiens, UniProt P08912)
Endpoint unit: nM
EC50: 2650
--
Compound: CCOC(=O)N1CCC(C)(N2CCC(N3C(=O)Cc4cc(F)c(C)cc43)CC2)C1 (single isomer, unassigned)
Study target: hM5 (human Muscarinic receptor subtype 5) (Homo sapiens, UniProt P08912)
Endpoint unit: nM
EC50: 1240
--
Compound: CCOC(=O)N1CCC(C)(N2CCC(n3c(=O)[nH]c4cc(F)c(F)cc43)CC2)C1 (single isomer, unassigned) [Example 58]
Study target: hM5 (human Muscarinic receptor subtype 5) (Homo sapiens, UniProt P08912)
Endpoint unit: nM
EC50: 2210
--
Compound: CC1(N2CCC(n3c(=O)[nH]c4cc(F)ccc43)CC2)CCN(C(=O)OCCF)C1 (stereo not drawn) [Example 10]
Study target: hM5 (human Muscarinic receptor subtype 5) (Homo sapiens, UniProt P08912)
Endpoint unit: nM
EC50: 537

Prompt line: Which EC50 is reported for this compound? CC#CCOC(=O)N1CCC(C)(N2CCC(n3c(=O)[nH]c4ccc(C)cc43)CC2)C1 (single isomer, unassigned)
Response line: 720

Prompt line: Which EC50 is reported for this compound? CCOC(=O)N1CCC(C)(N2CCC(N3C(=O)Cc4cc(F)ccc43)CC2)C1 (single isomer, unassigned)
Response line: 2540

---

Study target: cloned human M4 receptor (human Muscarinic receptor subtype 4) (Homo sapiens, UniProt P08173)
Construct: purchased Perkin-Elmer RBHM4M; host or cells: Chinese hamster ovary cells (CHO) membranes
Sequence (P08173 1-479): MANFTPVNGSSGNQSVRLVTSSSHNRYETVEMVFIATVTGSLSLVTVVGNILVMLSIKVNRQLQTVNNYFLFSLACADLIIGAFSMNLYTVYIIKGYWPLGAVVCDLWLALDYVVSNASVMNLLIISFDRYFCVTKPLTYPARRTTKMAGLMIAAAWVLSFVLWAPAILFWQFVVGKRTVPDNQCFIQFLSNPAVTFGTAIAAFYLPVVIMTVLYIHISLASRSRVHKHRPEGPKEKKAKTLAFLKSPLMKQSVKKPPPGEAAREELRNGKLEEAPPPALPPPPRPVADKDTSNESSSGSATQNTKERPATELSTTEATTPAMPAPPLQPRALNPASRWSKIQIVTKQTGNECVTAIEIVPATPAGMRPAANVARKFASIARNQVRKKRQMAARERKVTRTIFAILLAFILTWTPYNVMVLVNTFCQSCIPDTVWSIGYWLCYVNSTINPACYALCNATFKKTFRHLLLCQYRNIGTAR
Assay info: hM4 receptor GTPγS binding
Format: biochemical
Test settings: CHO cell membranes expressing hM4; [35S]GTPγS binding; read-out: hM4 EC50
Attribute measured: pEC50
Kindly note that pEC50 refers to -log10 of the concentration in mol/L and answer with the value alone.

Compound: COC(=O)N1CCC(C)(N2CCC(N3C(=O)Cc4ccc(C)cc43)CC2)C1 (single isomer, unassigned) [Example 67]
Recorded number: 4.82

Compound: Cc1ccc2[nH]c(=O)n(C3CCN(C4(C)CCN(C(=O)OCCF)C4)CC3)c2c1 (single isomer, unassigned) [Example 28]
Recorded number: 5.08

Compound: CCOC(=O)N1CCC(C)(N2CCC(N3C(=O)Cc4cc(F)c(C)cc43)CC2)C1 (single isomer, unassigned) [Example 81]
Recorded number: 5.15

Compound: CCOC(=O)N1CCC(C)(N2CCC(n3c(=O)[nH]c4cc(F)ccc43)CC2)C1 (single isomer, unassigned) [Example 6]
Recorded number: 5.76

Attention now turns to another entry.
Prompt line: Which pEC50 is reported for this compound? CC#CCOC(=O)N1CCC(C)(N2CCC(n3c(=O)[nH]c4cc(C)ccc43)CC2)C1 (single isomer, unassigned)
Response line: 6.58

---

Study target: cloned human M4 receptor (human Muscarinic receptor subtype 4) (Homo sapiens)
Construct: purchased Perkin-Elmer RBHM4M; host or cells: Chinese hamster ovary cells (CHO) membranes
Sequence (P08173 1-479): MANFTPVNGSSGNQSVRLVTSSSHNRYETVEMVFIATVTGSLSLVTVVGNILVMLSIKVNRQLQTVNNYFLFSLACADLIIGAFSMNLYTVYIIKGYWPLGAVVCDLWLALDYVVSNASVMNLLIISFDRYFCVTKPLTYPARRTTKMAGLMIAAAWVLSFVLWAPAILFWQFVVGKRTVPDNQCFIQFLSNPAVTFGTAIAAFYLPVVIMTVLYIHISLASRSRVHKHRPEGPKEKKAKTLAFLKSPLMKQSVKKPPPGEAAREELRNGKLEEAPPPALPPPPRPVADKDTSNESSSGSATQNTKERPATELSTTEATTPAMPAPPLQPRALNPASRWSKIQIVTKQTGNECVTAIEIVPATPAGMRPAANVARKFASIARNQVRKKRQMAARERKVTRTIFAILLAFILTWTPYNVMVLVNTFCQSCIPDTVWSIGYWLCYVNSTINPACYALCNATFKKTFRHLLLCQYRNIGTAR
Assay info: hM4 receptor GTPγS binding
Format: biochemical
Test settings: CHO cell membranes expressing hM4; [35S]GTPγS binding; read-out: hM4 EC50
Attribute measured: EC50

Prompt line: Which EC50 is reported for this molecule? COC(=O)N1CCC(C)(N2CCC(N3C(=O)Cc4ccc(F)cc43)CC2)C1 (single isomer, unassigned)
Response line: > 90 µM

---

Study target: hM3 (human Muscarinic receptor subtype 3) (Homo sapiens, UniProt P20309)
Construct: expressed in transfected cells; host or cells: CHO cells (Chinese hamster ovary cells, ATCC)
Sequence (P20309 whole entry): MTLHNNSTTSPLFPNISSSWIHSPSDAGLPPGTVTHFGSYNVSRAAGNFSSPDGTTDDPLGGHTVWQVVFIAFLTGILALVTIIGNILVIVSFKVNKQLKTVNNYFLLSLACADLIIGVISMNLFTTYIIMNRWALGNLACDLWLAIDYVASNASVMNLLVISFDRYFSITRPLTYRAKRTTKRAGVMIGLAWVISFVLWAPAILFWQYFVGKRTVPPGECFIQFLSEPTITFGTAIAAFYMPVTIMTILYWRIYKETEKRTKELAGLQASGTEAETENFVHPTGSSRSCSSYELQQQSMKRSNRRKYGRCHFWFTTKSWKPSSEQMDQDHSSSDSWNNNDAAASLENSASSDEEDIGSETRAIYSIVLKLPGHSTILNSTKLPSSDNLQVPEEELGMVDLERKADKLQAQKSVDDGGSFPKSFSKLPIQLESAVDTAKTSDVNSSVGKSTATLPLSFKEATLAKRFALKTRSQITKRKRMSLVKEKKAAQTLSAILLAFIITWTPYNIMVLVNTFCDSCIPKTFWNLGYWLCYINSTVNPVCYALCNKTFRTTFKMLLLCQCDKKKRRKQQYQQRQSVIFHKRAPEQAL
Assay info: Human M3 calcium mobilization FLIPR assay
Type: cell-based
Test settings: hM3 expressed in CHO cells, intracellular Ca2+ release, read-out: hM3 EC50
Attribute measured: EC50

Compound: Cc1ccc2[nH]c(=O)n(C3CCN(C4(C)CCN(C(=O)OCCF)C4)CC3)c2c1 (single isomer, unassigned)
Study target: hM3 (human Muscarinic receptor subtype 3) (Homo sapiens, UniProt P20309)
Attribute measured: EC50
Result: > 24.3 µM
--
Compound: CCOC(=O)N1CCC(C)(N2CCC(n3c(=O)[nH]c4cc(F)c(F)cc43)CC2)C1 (single isomer, unassigned) [Example 58]
Study target: hM3 (human Muscarinic receptor subtype 3) (Homo sapiens, UniProt P20309)
Attribute measured: EC50
Result: > 40 µM
--
Compound: C#CCOC(=O)N1CCC(C)(N2CCC(n3c(=O)[nH]c4cc(F)ccc43)CC2)C1 (stereo not shown)
Study target: hM3 (human Muscarinic receptor subtype 3) (Homo sapiens, UniProt P20309)
Attribute measured: EC50
Result: 1.13 µM

Prompt line: Which EC50 is reported for this compound? CCOC(=O)N1CCC(C)(N2CCC(N3C(=O)Cc4ccc(F)cc43)CC2)C1 (single isomer, unassigned) [Example 74]
Response line: > 40 µM

Prompt line: Which EC50 is reported for this compound? CC1(N2CCC(n3c(=O)[nH]c4ccc(F)cc43)CC2)CCN(C(=O)OCCF)C1 (single isomer, unassigned)
Response line: > 40 µM

Prompt line: Which EC50 is reported for this compound? CCOC(=O)N1CCC(C)(N2CCC(n3c(=O)[nH]c4ccc(F)cc43)CC2)C1 (single isomer, unassigned) [Example 49]
Response line: > 40 µM

Prompt line: Which EC50 is reported for this compound? CCOC(=O)N1CCC(C)(N2CCC(n3c(=O)[nH]c4cc(F)ccc43)CC2)C1 (single isomer, unassigned)
Response line: > 40 µM

Prompt line: Which EC50 is reported for this compound? CCOC(=O)N1CCC(C)(N2CCC(n3c(=O)[nH]c4cc(F)c(C)cc43)CC2)C1 (single isomer, unassigned) [Example 55]
Response line: > 40 µM

---

Examples of molecules with documented EC50 follow.
Study target: cloned human M2 receptor (human Muscarinic receptor subtype 2) (Homo sapiens)
Construct: purchased Perkin-Elmer RBHM2M; host or cells: Chinese hamster ovary cells (CHO) membranes
Sequence (P08172 whole entry): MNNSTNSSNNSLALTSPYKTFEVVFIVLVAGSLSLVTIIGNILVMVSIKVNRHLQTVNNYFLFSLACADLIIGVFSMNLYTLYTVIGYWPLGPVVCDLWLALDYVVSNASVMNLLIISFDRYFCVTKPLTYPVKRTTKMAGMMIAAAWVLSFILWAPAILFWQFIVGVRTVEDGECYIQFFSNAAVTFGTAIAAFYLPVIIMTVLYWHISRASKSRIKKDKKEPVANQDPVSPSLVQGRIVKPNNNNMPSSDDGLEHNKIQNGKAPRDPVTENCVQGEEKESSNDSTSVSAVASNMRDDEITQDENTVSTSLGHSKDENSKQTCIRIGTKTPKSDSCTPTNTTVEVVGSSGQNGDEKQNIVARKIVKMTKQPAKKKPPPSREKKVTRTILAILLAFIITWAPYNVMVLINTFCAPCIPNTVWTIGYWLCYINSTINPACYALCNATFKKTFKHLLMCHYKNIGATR
Assay info: hM2 receptor GTPγS binding
Format: biochemical
Test settings: CHO cell membranes expressing hM2; [35S]GTPγS binding; read-out: hM2 EC50
Could you give me the number in nM? Just the number is fine.

Some solved cases for reference:
Molecule: CCOC(=O)N1CCC(C)(N2CCC(N3C(=O)Cc4cc(F)c(C)cc43)CC2)C1 (single isomer, unassigned) [Example 81]
EC50 (nM): 1670
--
Molecule: CCOC(=O)N1CCC(C)(N2CCC(n3c(=O)[nH]c4cc(C)ccc43)CC2)C1 (single isomer, unassigned) [Example 12]
EC50 (nM): 771
--
Molecule: C#CCOC(=O)N1CCC(C)(N2CCC(n3c(=O)[nH]c4ccc(C)cc43)CC2)C1 (single isomer, unassigned) [Example 41]
EC50 (nM): 2210
--
Molecule: CCOC(=O)N1CCC(C)(N2CCC(n3c(=O)[nH]c4ccc(F)cc43)CC2)C1 (single isomer, unassigned) [Example 50]
EC50 (nM): 498
--
Molecule: CC#CCOC(=O)N1CCC(C)(N2CCC(n3c(=O)[nH]c4ccccc43)CC2)C1 (single isomer, unassigned) [Example 33]
EC50 (nM): 104

Prompt line: Which EC50 is reported for this molecule? C#CCOC(=O)N1CCC(C)(N2CCC(n3c(=O)[nH]c4cc(F)ccc43)CC2)C1 (single isomer, unassigned) [Example 36]
Response line: 1560
